Ki values for the molecules below.
system: mouse H3 receptor (Mus musculus)
Sequence (P58406 whole entry): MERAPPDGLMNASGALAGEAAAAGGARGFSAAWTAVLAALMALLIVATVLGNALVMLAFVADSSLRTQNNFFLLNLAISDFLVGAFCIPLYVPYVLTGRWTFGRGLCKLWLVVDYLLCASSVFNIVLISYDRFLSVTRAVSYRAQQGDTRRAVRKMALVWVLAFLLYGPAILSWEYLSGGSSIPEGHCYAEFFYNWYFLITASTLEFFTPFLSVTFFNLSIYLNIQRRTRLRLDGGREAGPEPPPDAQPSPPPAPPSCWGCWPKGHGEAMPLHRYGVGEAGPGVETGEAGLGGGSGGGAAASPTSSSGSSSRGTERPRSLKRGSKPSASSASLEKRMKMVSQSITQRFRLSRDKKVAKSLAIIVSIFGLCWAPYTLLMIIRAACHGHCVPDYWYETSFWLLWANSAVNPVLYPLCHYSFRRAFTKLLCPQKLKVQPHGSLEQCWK

molecule	system	Ki
COC[C@H]1CCCN1CCc1cc2cc(-c3c4c(nc5ccnn35)CCC4)ccc2o1	mouse H3 receptor (Mus musculus)	< 500 nM
CN(CCCOc1ccc(-c2c3c(nc4ccnn24)CCCCC3)cc1)Cc1ccco1	mouse H3 receptor (Mus musculus)	< 500 nM
c1cc2nc3c(c(-c4ccc5oc(CCN6CCCC6)cc5c4)n2n1)CCC3	mouse H3 receptor (Mus musculus)	< 500 nM
c1cc2nc3c(c(-c4ccc5oc(CCN6CCCCC6)cc5c4)n2n1)CCC3	mouse H3 receptor (Mus musculus)	< 500 nM

**Query** Annotate the molecule C[C@@H]1CCCN1CCCOc1ccc(-c2c3c(nc4ccnn24)CCCC3)cc1 with its measured Ki.
**Result** < 50 nM

**Query** # return recorded Ki for input CC1CCCN1CCCOc1ccc(-c2c3c(nc4ccnn24)CCCCC3)cc1 (stereo not shown)
**Result** < 50 nM

**Query** Determine its reported Ki: CC1CCCN1CCCOc1cccc(-c2c3c(nc4ccnn24)CCCCC3)c1 (stereo not shown)
**Result** < 5000 nM

**Query** State its Ki: c1cc(OCCCN2CCCCC2)cc(-c2c3c(nc4ccnn24)CCCCC3)c1
**Result** < 5000 nM

**Query** Return Ki for the following molecule: CN(C)[C@@H]1CCN(CCc2cc3cc(-c4c5c(nc6ccnn46)CCC5)ccc3o2)C1
**Result** < 500 nM

**Query** Indicate its recorded Ki; the molecule in question is CC1CCCN1CCCOc1ccc(-c2c3c(nc4ccnn24)COC3)cc1 (stereo not shown)
**Result** < 50 nM

**Query** Look up and report measured Ki for this entry: c1cc2nc3c(c(-c4ccc(OCCCN5CCOCC5)cc4)n2n1)CCCC3
**Result** < 50 nM

**Query** Determine from records and report Ki for CN(C)CCCOc1ccc(-c2c3c(nc4ccnn24)CCCC3)cc1
**Result** < 500 nM

**Query** // fetch Ki given entry C[C@@H]1CCCN1CCCOc1ccc(-c2c3c(nc4ccnn24)CCCCC3)cc1
**Result** < 50 nM

**Query** Look up and report measured Ki for this entry: c1cc2nc3c(c(-c4ccc5oc(CCN6CCCC6)cc5c4)n2n1)CCCC3
**Result** < 5000 nM

**Query** Supply recorded Ki for c1cc(OCCCN2CCCC2)cc(-c2c3c(nc4ccnn24)CCCCC3)c1 here.
**Result** < 5000 nM

**Query** Give the reported value of Ki for this record: c1cc2nc3c(c(-c4ccc5oc(CCN6CCOCC6)cc5c4)n2n1)CCCC3
**Result** < 500 nM
